measured-on: MMP-2 (gelatinase A) (Homo sapiens)
test-description: MMP-2 (gelatinase A) inhibitory activities, fluorogenic substrate enzyme assay
run-parameters: 42° C., 2 h, substrate 10 μM
pIC50: −log10 of the molar value.
reported-property: pIC50

Solved cases below.
[
  {
    "compound-string": "CC(C)CCC(=O)N[C@@H]1CCN(S(=O)(=O)c2ccc(-c3ccc([N+](=O)[O-])cc3)cc2)[C@@H](C(=O)NO)C1",
    "pIC50": 7.66
  },
  {
    "compound-string": "COc1ccc(S(=O)(=O)N2CC[C@@H](NC(C)=O)C[C@@H]2C(=O)NO)cc1",
    "pIC50": 8.38
  },
  {
    "compound-string": "CC(C)CCC(=O)N[C@@H]1CCN(S(=O)(=O)c2ccc(-c3ccc(Cl)cc3)cc2)[C@@H](C(=O)NO)C1",
    "pIC50": 7.72
  }
]

P: CC(C)CCC(=O)N[C@@H]1CCN(S(=O)(=O)c2ccc(O)cc2)[C@@H](C(=O)NO)C1
Q: CC(C)CCC(=O)N[C@@H]1CCN(S(=O)(=O)c2cccs2)[C@@H](C(=O)NO)C1
R: COc1ccc(OCCCCC(=O)N[C@H]2CCN(S(=O)(=O)c3ccc(OC)cc3)[C@H](C(=O)NO)C2)cc1
Task item: Order by pIC50, ascending. Return value: ordered labels per request.
Reply: R, Q, P

====

Observed IC50, system MMP-9 (gelatinase B) (Homo sapiens, UniProt P14780).
reported-property: IC50 (nM)

[
  {
    "compound-string": "COc1ccc(OCCCCC(=O)N[C@@H]2CCN(S(=O)(=O)c3ccc(OC)cc3)[C@@H](C(=O)NO)C2)cc1",
    "result-number": 0.88
  },
  {
    "compound-string": "O=C(N[C@@H]1CCN(S(=O)(=O)c2ccc(-c3ccc(Cl)cc3)cc2)[C@@H](C(=O)O)C1)c1cccc[n+]1[O-]",
    "result-number": 200
  },
  {
    "compound-string": "CC(C)CCCN[C@@H]1CCN(S(=O)(=O)c2cccs2)[C@@H](C(=O)NO)C1",
    "result-number": 83
  }
]

a: O=C(N[C@@H]1CCN(S(=O)(=O)c2ccc(-c3ccc(Cl)cc3)cc2)[C@@H](C(=O)NO)C1)c1ccccn1
b: COc1ccc(CN[C@@H]2CCN(S(=O)(=O)c3ccc(-c4ccc(OC)cc4)cc3)[C@@H](C(=O)NO)C2)cc1
Task item: Of a and b , which one carries the higher reported IC50? // respond with label for picked entry
Reply: a

a: COc1ccc(OCCCCC(=O)N[C@H]2CCN(S(=O)(=O)c3ccc(OC)cc3)[C@H](C(=O)NO)C2)cc1
b: COc1ccc(C(=O)N[C@@H]2CCN(S(=O)(=O)c3cccs3)[C@@H](C(=O)NO)C2)cc1
c: CC(=O)N[C@@H]1CCN(S(=O)(=O)c2ccc(-c3ccc(Cl)cc3)cc2)[C@@H](C(=O)NO)C1
d: COc1ccc(-c2ccc(S(=O)(=O)N3CC[C@@H](NC(=O)CCC(C)C)C[C@@H]3C(=O)NO)cc2)cc1
Task item: Put the entries in order of IC50, starting with the largest number. Return value: ordered labels per request.
Reply: a, b, c, d
(a: 450 nM, b: 44 nM, c: 1.1 nM, d: 0.26 nM)

====

measured-on: MMP-2 (gelatinase A) (Homo sapiens)
Sequence (P08253 110-660): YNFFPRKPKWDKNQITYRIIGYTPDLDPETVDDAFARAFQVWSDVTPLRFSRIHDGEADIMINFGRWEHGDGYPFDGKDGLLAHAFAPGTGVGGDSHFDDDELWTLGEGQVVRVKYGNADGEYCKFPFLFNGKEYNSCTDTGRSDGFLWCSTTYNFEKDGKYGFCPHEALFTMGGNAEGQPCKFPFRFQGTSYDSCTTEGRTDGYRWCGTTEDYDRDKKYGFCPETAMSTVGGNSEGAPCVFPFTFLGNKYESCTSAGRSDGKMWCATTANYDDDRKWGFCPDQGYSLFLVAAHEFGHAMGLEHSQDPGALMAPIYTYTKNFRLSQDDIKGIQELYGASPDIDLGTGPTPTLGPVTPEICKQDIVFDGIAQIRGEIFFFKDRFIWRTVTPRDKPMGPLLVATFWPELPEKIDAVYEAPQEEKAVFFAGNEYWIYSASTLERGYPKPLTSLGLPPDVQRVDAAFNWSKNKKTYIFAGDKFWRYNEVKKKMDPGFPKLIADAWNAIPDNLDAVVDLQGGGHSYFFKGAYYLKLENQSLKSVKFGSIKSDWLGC
test-description: MMP-2 (gelatinase A) inhibitory activities, fluorogenic substrate enzyme assay
run-parameters: 42° C., 2 h, substrate 10 μM
reported-property: IC50 (nM)

[
  {
    "compound-string": "CC(C)CCC(=O)N[C@@H]1CCN(S(=O)(=O)c2ccccc2-c2ccc(O)cc2)[C@@H](C(=O)NO)C1",
    "IC50, nM": 2400
  },
  {
    "compound-string": "CC(C)CCC(=O)N[C@@H]1CCN(S(=O)(=O)c2ccc(-c3ccc(O)cc3)cc2)[C@@H](C(=O)NO)C1",
    "IC50, nM": 1.8
  },
  {
    "compound-string": "COc1ccc(S(=O)(=O)N2CC[C@@H](NC(=O)CCC(C)C)C[C@@H]2C(=O)NO)cc1",
    "IC50, nM": 1.7
  }
]

A: CC(C)CCCN[C@@H]1CCN(S(=O)(=O)c2cccs2)[C@@H](C(=O)NO)C1
B: COc1ccc(-c2ccc(S(=O)(=O)N3CC[C@@H](NC(=O)c4ccc([N+](=O)[O-])cc4)C[C@@H]3C(=O)NO)cc2)cc1
C: COc1ccc(-c2ccc(S(=O)(=O)N3CC[C@@H](NC(=O)CCC(C)C)C[C@@H]3C(=O)NO)cc2)cc1
D: O=C(N[C@@H]1CCN(S(=O)(=O)c2ccc(-c3ccc(O)cc3)cc2)[C@@H](C(=O)NO)C1)c1ccccc1
Task item: Order by IC50, ascending. Return value: ordered labels per request.
Reply: C, D, B, A

A: CC(=O)N[C@@H]1CCN(S(=O)(=O)c2ccc(-c3ccc(O)cc3)cc2)[C@@H](C(=O)NO)C1
B: COc1ccc(CN[C@@H]2CCN(S(=O)(=O)c3ccc(-c4ccc(OC)cc4)cc3)[C@@H](C(=O)NO)C2)cc1
C: COc1ccc(S(=O)(=O)N2CC[C@H](NC(C)=O)C[C@H]2C(=O)NO)cc1
D: CC(=O)N[C@@H]1CCN(S(=O)(=O)c2ccc(-c3ccc(Cl)cc3)cc2)[C@@H](C(=O)NO)C1
Task item: Order by IC50, ascending. Return value: ordered labels per request.
Reply: B, D, A, C

P: COc1ccc(-c2ccc(S(=O)(=O)N3CC[C@@H](NC(=O)c4c[nH]c5ccccc45)C[C@@H]3C(=O)NO)cc2)cc1
Q: COc1ccc(C(=O)N[C@@H]2CCN(S(=O)(=O)c3cccs3)[C@@H](C(=O)NO)C2)cc1
R: COc1ccc(C(=O)N[C@@H]2CCN(S(=O)(=O)c3ccc(-c4ccc(OC)cc4)cc3)[C@@H](C(=O)NO)C2)cc1
S: COc1ccc(C(=O)N[C@@H]2CCN(S(=O)(=O)c3ccc(OC)cc3)[C@@H](C(=O)NO)C2)cc1
T: O=C(N[C@@H]1CCN(S(=O)(=O)c2ccc(-c3ccc(Cl)cc3)cc2)[C@@H](C(=O)NO)C1)c1ccccn1
Task item: Order by IC50, ascending. Return value: ordered labels per request.
Reply: R, S, T, P, Q
(R: 0.55 nM, S: 1.7 nM, T: 5.2 nM, P: 12 nM, Q: 73 nM)

a: COc1ccc(-c2ccc(S(=O)(=O)N3CC[C@@H](NC(=O)c4ccccc4)C[C@@H]3C(=O)NO)cc2)cc1
b: COc1ccc(-c2ccc(S(=O)(=O)N3CC[C@@H](NCc4ccccc4)C[C@@H]3C(=O)NO)cc2)cc1
c: COc1ccc(S(=O)(=O)N2CC[C@H](NC(=O)CCC(C)C)C[C@H]2C(=O)NO)cc1
d: CC(C)CCC(=O)N[C@@H]1CCN(S(=O)(=O)c2cccc(-c3ccc(O)cc3)c2)[C@@H](C(=O)NO)C1
e: CC(C)CCC(=O)N[C@@H]1CCN(S(=O)(=O)c2ccc([N+](=O)[O-])cc2)[C@@H](C(=O)NO)C1
Task item: Put the entries in order of IC50, starting with the largest number. Return value: ordered labels per request.
Reply: c, d, e, a, b

====

measured-on: Δ MT1-MMP (Δ MMP-14) (Homo sapiens, UniProt P50281)
Construct: ProMT1-MMP cDNA encoded extracellular domain of pro Δ MT1-MMP was tranfected E. coli BL21DE3
test-description: Δ MT1-MMP (Δ MMP-14) inhibitory activities, fluorogenic substrate enzyme assay
run-parameters: 37° C., 30 min, substrate 10 μM; read-out: ΔMMP-14 IC50
reported-property: IC50 (nM)

Solved cases below.
[
  {
    "compound": "COc1ccc(S(=O)(=O)N2CC[C@@H](NC(=O)CCC(C)C)C[C@@H]2C(=O)NO)cc1 [Compound 45]",
    "measured-on": "Δ MT1-MMP (Δ MMP-14) (Homo sapiens, UniProt P50281)",
    "reported-property": "IC50",
    "result-number": 16
  },
  {
    "compound": "COc1ccc(OCCCCC(=O)N[C@@H]2CCN(S(=O)(=O)c3ccc(OC)cc3)[C@@H](C(=O)NO)C2)cc1 [Compound 46]",
    "measured-on": "Δ MT1-MMP (Δ MMP-14) (Homo sapiens, UniProt P50281)",
    "reported-property": "IC50",
    "result-number": 4.3
  },
  {
    "compound": "CC(C)CCC(=O)N[C@@H]1CCN(S(=O)(=O)c2ccccc2-c2ccc(O)cc2)[C@@H](C(=O)NO)C1 [Compound 55]",
    "measured-on": "Δ MT1-MMP (Δ MMP-14) (Homo sapiens, UniProt P50281)",
    "reported-property": "IC50",
    "result-number": 3000
  },
  {
    "compound": "COc1ccc(-c2ccc(S(=O)(=O)N3CC[C@@H](NCCCC(C)C)C[C@@H]3C(=O)NO)cc2)cc1 [Compound 61]",
    "measured-on": "Δ MT1-MMP (Δ MMP-14) (Homo sapiens, UniProt P50281)",
    "reported-property": "IC50",
    "result-number": 49
  }
]

P: COc1ccc(CN[C@@H]2CCN(S(=O)(=O)c3ccc(-c4ccc(OC)cc4)cc3)[C@@H](C(=O)NO)C2)cc1 [Compound 62]
Q: COc1ccc(C(=O)N[C@@H]2CCN(S(=O)(=O)c3ccc(OC)cc3)[C@@H](C(=O)NO)C2)cc1 [Compound 47]
Task item: Of P and Q , which one carries the higher reported IC50? // respond with label for picked entry
Reply: P
(P: 45 nM, Q: 3.2 nM)

Data provenance is patent US20010056184A1.
